- Test system: P388
- Method: Inhibition of RNA synthesis was measured as the concentration required to cause 50% reduction (in 1h) in 2-[14C]uridine incorporation into acid precipitable material using P388 cells
- Format: functional, cell-based
- Condition description: Mus musculus, P388, 1 h
IC50 under 3000 nM gets Condition met, anything at or over 3000 nM gets Condition not met.

Cc1c2oc3c(C)c(O)c(N)c(C(=O)N[C@@H]4C(=O)N[C@H](C(C)C)C(=O)N5CCC[C@H]5C(=O)N(C)CC(=O)N(C)[C@@H](C(C)C)C(=O)O[C@@H]4C)c3nc-2c(C(=O)N[C@@H]2C(=O)N[C@H](C(C)C)C(=O)N3CCC[C@H]3C(=O)N(C)CC(=O)N(C)[C@@H](C(C)C)C(=O)O[C@@H]2C)cc1=O
Condition not met
Cc1nc2c(C(=O)N[C@@H]3C(=O)N[C@H](C(C)C)C(=O)N4CCC[C@H]4C(=O)N(C)CC(=O)N(C)[C@@H](C(C)C)C(=O)O[C@@H]3C)c3nc4c(C(=O)N[C@@H]5C(=O)N[C@H](C(C)C)C(=O)N6CCC[C@H]6C(=O)N(C)CC(=O)N(C)[C@@H](C(C)C)C(=O)O[C@@H]5C)c(N)c(=O)c(C)c-4oc3c(C)c2o1
Condition met
Cc1c2oc3c(C)c(O)c(N)c(C(=O)N[C@@H]4C(=O)N[C@H](C(C)C)C(=O)N5CCC[C@H]5C(=O)N(C)CC(=O)N(C)[C@@H](C(C)C)C(=O)O[C@@H]4C)c3nc-2c(C(=O)N[C@@H]2C(=O)N[C@H](C(C)C)C(=O)N3CCC[C@H]3C(=O)N(C)CC(=O)N(C)[C@@H](C(C)C)C(=O)O[C@@H]2C)c(N)c1=O
Condition met
Cc1c2oc3c(C)c4oc(-c5ccccc5)nc4c(C(=O)N[C@@H]4C(=O)N[C@H](C(C)C)C(=O)N5CCC[C@H]5C(=O)N(C)CC(=O)N(C)[C@@H](C(C)C)C(=O)O[C@@H]4C)c3nc-2c(C(=O)N[C@@H]2C(=O)N[C@H](C(C)C)C(=O)N3CCC[C@H]3C(=O)N(C)CC(=O)N(C)[C@@H](C(C)C)C(=O)O[C@@H]2C)c(N)c1=O
Condition met
Cc1c2oc3c(C)c4oc(-c5ccccc5)nc4c(C(=O)N[C@@H]4C(=O)N[C@H](C(C)C)C(=O)N5CCC[C@H]5C(=O)N(C)CC(=O)N(C)[C@@H](C(C)C)C(=O)O[C@@H]4C)c3nc-2c(C(=O)N[C@@H]2C(=O)N[C@H](C(C)C)C(=O)N3CCC[C@H]3C(=O)N(C)CC(=O)N(C)[C@@H](C(C)C)C(=O)O[C@@H]2C)cc1=O
Condition not met
